Answer each item with its documented pKd.
Target: T1, LC3A, purified, for fluorescence anisotropy (human, UniProt Q9H492 1-121)
T1 construct: LC3A, human ATG8 ortholog; Construct limits and whether the tag was removed may stand in the Supplemental Experimental Procedures; source: E. coli (pETM30 vectors for biochemical experiments), purified
Assay: fluorescence polarisation; fluorescence anisotropy, equilibrium; purified ATG8 orthologs serially diluted and mixed with equal volumes of 100 nM FITC-labeled NDP52 peptides; PheraStar plate reader
Details: both partners purified
Where no end group is shown, it is not given here.
Answers are plain numbers, as −log10 of the molar value.

1. ENEEDWLVVTTQGE (also: FITC label (end not given here), NDP52, human, CLIR region, 14-mer, Ile133 replaced with Trp; also called CLIR^I133W) [FITC-labeled NDP52 CLIR peptide (aa 128-141), I133W] | 6.54

The binder identified as ENEEDILVVTTQGE (also: FITC label (end not given here), NDP52, human, CLIR region, 14-mer; also called CLIR^WT) [FITC-labeled NDP52 CLIR peptide (aa 128-141), wild type] registered its pKd at 4.82
